# Tested target: HLA-DR DRB1*0901 (DR9) (Homo sapiens, UniProt P01903+P01911, A100R/A103E/D57H/D86V/F55Y/F60I/F76Y/I96F/K127E/L162R/M171V/P40D/Q125H/Q99R/R33Q/R42F/S133A/S66N/T210M/V115G/W38K/Y107V/Y59G/Y89S)
# Procedure summary: biochemical
# Format: binding
Listed next: entries and their corresponding pIC50.
// returns pIC50 (minus log10 of molar concentration), number only

Input line: Form field: reported pIC50 of "CC(C)C[C@H](N)C(=O)N[C@@H](CCC(=O)O)C(=O)N1CCC[C@H]1C(=O)N[C@@H](Cc1c[nH]c2ccccc12)C(=O)N[C@@H](CC(N)=O)C(=O)N[C@@H](Cc1c[nH]cn1)C(=O)N1CCC[C@H]1C(=O)NCC(=O)N[C@@H](CO)C(=O)N[C@@H](CCC(N)=O)C(=O)N1CCC[C@H]1C(=O)N[C@@H](CCCCN)C(=O)N[C@H](C(=O)N[C@@H](C)C(=O)N[C@@H](CS)C(=O)N[C@H](C(=O)O)[C@@H](C)O)[C@@H](C)O"
Output line: 4.46

Input line: Also need "CC[C@H](C)[C@H](NC(=O)[C@H](CCCCN)NC(=O)[C@H](CC(N)=O)NC(=O)[C@@H](NC(=O)[C@@H](NC(=O)[C@H](CC(C)C)NC(=O)[C@@H](NC(=O)[C@H](CO)NC(=O)[C@H](CC(C)C)NC(=O)[C@H](C)N)[C@@H](C)O)C(C)C)C(C)C)C(=O)N[C@@H](CCCNC(=N)N)C(=O)NCC(=O)N[C@H](C(=O)N[C@@H](Cc1ccccc1)C(=O)N[C@@H](CCCCN)C(=O)O)[C@@H](C)O" , thanks.
Output line: 4.74

Input line: Also need "CC[C@H](C)[C@H](N)C(=O)N[C@@H](C)C(=O)NCC(=O)N[C@@H](CC(C)C)C(=O)N[C@@H](Cc1ccccc1)C(=O)N[C@@H](CC(C)C)C(=O)N[C@H](C(=O)N[C@H](C(=O)N[C@@H](CCC(=O)O)C(=O)N[C@@H](C)C(=O)N[C@H](C(=O)N[C@H](C(=O)N[C@@H](C)C(=O)N[C@@H](CC(=O)O)C(=O)N[C@@H](CCCCN)C(=O)O)C(C)C)C(C)C)[C@@H](C)O)[C@@H](C)O" , thanks.
Output line: 6.39

Input line: Also need "CC[C@H](C)[C@H](NC(=O)[C@H](CCCCN)NC(=O)[C@H](CC(N)=O)NC(=O)[C@@H](NC(=O)[C@@H](NC(=O)[C@H](CC(C)C)NC(=O)[C@@H](NC(=O)[C@H](CO)NC(=O)[C@H](CC(C)C)NC(=O)[C@H](C)NC(=O)[C@H](CCC(=O)O)NC(=O)CN)[C@@H](C)O)C(C)C)C(C)C)C(=O)N[C@@H](CCCNC(=N)N)C(=O)NCC(=O)N[C@H](C(=O)O)[C@@H](C)O" , thanks.
Output line: 4.39
